- test-name: Rat pharmacokinetics, oral administration
- Format: in vivo
- run-parameters: rat, in vivo, po, 20 mg/kg, Mean ± SEM (n = 2)
value-type: Tmax
Write down the value, and be sure its unit follows.

So for "O=C(Nc1ccc2sc(-c3ccc(F)c(F)c3)nc2c1)N1CC[C@H](F)C1" , the logged Tmax turned out to be 7 h

###

- Test system: human lymphocytes CRL-8155
- test-name: Cytotoxicity against CRL-8155 cells
- run-parameters: read-out: CRL-8155 EC50; concentration required to inhibit growth by 50%; human lymphoblasts
pEC50: −log10 of the molar value.
value-type: pEC50

Here is how some compounds turned out for pEC50.
{"compound": "O=C(Nc1ccc2sc(-c3ccccc3)nc2c1)c1cccs1", "pEC50": "< 4.30"}
{"compound": "O=C(Nc1ccc2sc(-c3ccc(F)c(F)c3)nc2c1)N1CC[C@H](F)C1", "pEC50": "< 4.30"}
{"compound": "O=C(Nc1ccc2sc(-c3ccc(F)c(F)c3)nc2c1)N1CCCC1", "pEC50": 4.47}
{"compound": "O=C(Nc1ccc2sc(-c3ccccc3F)nc2c1)N1CCCC1", "pEC50": "< 4.30"}
{"compound": "O=C(Nc1ccc2sc(-c3ccccc3F)nc2c1)N1CCCCC1", "pEC50": "< 4.30"}
{"compound": "O=C(Nc1ccc2sc(-c3ccc(F)c(F)c3)nc2c1)N1CCC(F)(F)C1", "pEC50": "< 4.30"}
{"compound": "O=C(Nc1ccc2sc(-c3cccc(F)c3F)nc2c1)N1CCCC1", "pEC50": "< 4.30"}
{"compound": "O=C(Nc1ccc2sc(-c3ccccc3)nc2c1)N1CCCCC1", "pEC50": "< 4.30"}

Next up:
Item: "O=C(Nc1ccc2sc(-c3cccc(F)c3)nc2c1)N1CCCC1" | pEC50: < 4.30

###

Below: a set of entries, each annotated with reported Tmax.
- test-name: Mouse oral pharmacokinetics
- Assay type: in vivo
- run-parameters: mouse, plasma, po, 50 mg/kg; Table 5; read-out: Mouse oral PK Tmax (converted)
- Description: […] Experiments were performed with groups of three mice per compound. Plasma was separated and extracted with acetonitrile for measurements of compound concentrations by liquid chromatography/tandem mass spectrometry.
State just the number; it will be interpreted in h.

Recorded Tmax (molecule "O=C(Nc1ccc2sc(-c3ccc(F)c(F)c3)nc2c1)N1CCCC1" ): 1

Entry O=C(Nc1ccc2sc(-c3ccc(F)c(F)c3)nc2c1)N1CCC(F)C1 (racemic) , Tmax reported as 1

GET /value?item= "O=C(Nc1ccc2sc(-c3ccc(F)c(F)c3)nc2c1)N1CC[C@H](F)C1" &field=Tmax returns 2

###

- test-name: Rat pharmacokinetics, intravenous administration
- Type: in vivo
- run-parameters: rat, plasma, iv, 5 mg/kg, Rat 2, read-out: Apparent T1/2 (min) for steady state
value-type: half-life
Answer with the value and then the unit.

Kindly note the recorded half-life for O=C(Nc1ccc2sc(-c3ccc(F)c(F)c3)nc2c1)N1CC[C@H](F)C1 [Compound 1] , which is 105 min

###

- test-name: Distribution between mouse plasma and brain (brain penetration, ip)
- Type: in vivo
- run-parameters: mouse, plasma, intraperitoneal, 5 mg/kg; Table 7; groups of 3 mice; read-out: Average [compound] plasma
Recorded log10(concentration at 1 h) for the following compounds
The figures below represent log10 of concentration at 1 h, where concentration at 1 h is stated in nM.

Please review the entries below; each comes with its answer.
{"compound": "O=C(Nc1ccc2sc(-c3ccc(F)c(F)c3)nc2c1)N1CCCC1 [Compound 2]", "value-observed": 3.42}
{"compound": "O=C(Nc1ccc2sc(-c3cccc(F)c3)nc2c1)N1CCCC1 [Compound 6]", "value-observed": 3.35}
{"compound": "O=C(Nc1ccc2sc(-c3cccc(F)c3F)nc2c1)N1CCCC1 [Compound 5]", "value-observed": 3.11}
{"compound": "O=C(Nc1ccc2oc(-c3ccccc3)nc2c1)N1CCCC1 [Compound 8, 2-Phenyl-5-N-pyrrolidylamidobenzoxazole]", "value-observed": 2.43}

Now look at this entry.
// field: log10(concentration at 1 h); key: O=C(Nc1ccc2sc(-c3ccccc3)nc2c1)N1CCCC1 [Compound 7] ; value = 3.53
